# Test system: Beet Armyworm (Spodoptera exigua) ("BAW"), second instar larvae
# procedureDetails: Bioassay on beet armyworm (BAW), 128-well diet tray assay
# Type: in vivo
# details: Spodoptera exigua, read-out: BAW (Biological Results, rating)
Measured pest or weed control at 50 µg/cm2, listed per entry.
parameter: pest or weed control at 50 µg/cm2

>>> result("Cc1ccc(OCCC(F)(F)F)c(N2C(=O)CS/C2=N\\C(=O)Nc2ccc(-c3ncn(-c4ccc(OC(F)(F)F)cc4)n3)cc2F)c1 [Compound J35]")
"50 to 100%"
>>> result("Cc1ccc(COCC(F)(F)F)c(N2C(=O)CS/C2=N\\C(=O)Nc2ccc(-c3ncn(-c4ccc(OC(F)(F)F)cn4)n3)cc2Cl)c1 [Compound J249]")
"50 to 100%"
>>> result("Cc1ccc(OCCC(F)(F)F)c(N2C(=O)CS/C2=N\\C(=O)Nc2ccc(-c3ncn(-c4ccc(C(F)(F)F)cc4)n3)cc2F)c1 [Compound J64]")
"50 to 100%"

* * *

# System: Beet Armyworm (Spodoptera exigua) ("BAW"), second instar larvae
# procedureDetails: Bioassay on beet armyworm (BAW), 128-well diet tray assay
# Format: in vivo
# details: Spodoptera exigua, read-out: BAW (Biological Results, rating)
Measured pest or weed control at 50 µg/cm2, listed per entry.
parameter: pest or weed control at 50 µg/cm2

>>> result("CCC(C)c1ccc(C)cc1N1C(=O)CS/C1=N\\C(=O)Nc1ccc(-c2ncn(-c3ccc(C(F)(F)F)cc3)n2)cc1F (stereo not drawn)")
"50 to 100%"
>>> result("N#CC(CNC(=O)/N=C1\\SCC(=O)N1c1cc(Cl)ccc1C(F)(F)F)c1ccc(-c2ncn(-c3ccc(OC(F)(F)F)cc3)n2)cc1 (stereo not drawn)")
"50 to 100%"
>>> result("COc1ccc(-n2cnc(-c3ccc(NC(=O)/N=C4\\SCC(=O)N4c4cc(C)ccc4OCCC(F)(F)F)c(F)c3)n2)cc1")
"50 to 100%"

* * *

# Tested on: Beet Armyworm (Spodoptera exigua) ("BAW"), second instar larvae
# procedureDetails: Bioassay on beet armyworm (BAW), 128-well diet tray assay
# Assay type: in vivo
# details: Spodoptera exigua, read-out: BAW (Biological Results, rating)
Measured pest or weed control at 50 µg/cm2, listed per entry.
parameter: pest or weed control at 50 µg/cm2

>>> result("COC(C)c1ccc(C)cc1N1C(=O)CS/C1=N\\C(=O)Nc1ccc(-c2ncn(-c3ccc(OC(F)(F)F)cn3)n2)cc1C (stereo not drawn)")
"50 to 100%"
>>> result("O=C(/N=C1\\SCC(=O)N1c1cc(C(F)(F)F)ccc1C(F)(F)F)Nc1ccc(-c2ncn(-c3ccc(OC(F)(F)F)cc3)n2)cc1F")
"50 to 100%"
>>> result("CCCc1ccc(OCC)cc1N1C(=O)CS/C1=N\\C(=O)Nc1ccc(-c2ncn(-c3ccc(OC(F)(F)F)cc3)n2)cc1F")
"50 to 100%"

* * *

# Tested on: Beet Armyworm (Spodoptera exigua) ("BAW"), second instar larvae
# procedureDetails: Bioassay on beet armyworm (BAW), 128-well diet tray assay
# Format: in vivo
# details: Spodoptera exigua, read-out: BAW (Biological Results, rating)
parameter: pest or weed control at 50 µg/cm2

>>> result("COc1ccc(C(C)C)c(N2C(=O)CS/C2=N\\C(=O)Nc2ccc(-c3ncn(-c4ccc(C(F)(F)F)cc4)n3)cc2C)c1")
"50 to 100%"
>>> result("COC(C)c1ccc(C)cc1N1C(=O)CS/C1=N\\C(=O)Nc1ccc(-c2ncn(-c3ccc(OC(F)(F)F)cc3)n2)cc1C (stereo not drawn)")
"50 to 100%"
>>> result("Cc1ccc(COCC(F)(F)F)c(N2C(=O)CS/C2=N\\C(=O)Nc2ccc(-c3ncn(-c4ccc(OCC#N)cc4)n3)cc2F)c1")
"50 to 100%"

* * *

Measured pest or weed control at 50 µg/cm2, listed per entry.
# Tested on: Beet Armyworm (Spodoptera exigua) ("BAW"), second instar larvae
# procedureDetails: Bioassay on beet armyworm (BAW), 128-well diet tray assay
# Format: in vivo
# details: Spodoptera exigua, read-out: BAW (Biological Results, rating)
parameter: pest or weed control at 50 µg/cm2

>>> result("CCOC(C)c1ccc(C)cc1N1C(=O)CS/C1=N\\C(=O)Nc1ccc(-c2ncn(-c3ccc(OC(F)(F)F)cc3)n2)cc1O (stereo not drawn)")
"50 to 100%"
>>> result("Cc1ccc(C(C)C)c(N2C(=O)CS/C2=N\\C(=O)Nc2ccc(-c3ncn(-c4ccc(OC(F)(F)F)cc4)n3)c(C)c2)c1")
"50 to 100%"
>>> result("COc1ccc(OCCC(F)(F)F)c(N2C(=O)CS/C2=N\\C(=O)Nc2ccc(-c3ncn(-c4ccc(OC(F)(F)F)cc4)n3)cc2F)c1")
"50 to 100%"

* * *

# Tested on: Beet Armyworm (Spodoptera exigua) ("BAW"), second instar larvae
# procedureDetails: Bioassay on beet armyworm (BAW), 128-well diet tray assay
# Assay type: in vivo
# details: Spodoptera exigua, read-out: BAW (Biological Results, rating)
parameter: pest or weed control at 50 µg/cm2

>>> result("CC(C)c1ccc(N(C)C)cc1N1C(=O)CS/C1=N\\C(=O)Nc1ccc(-c2ncn(-c3ccc(OCC#N)cc3)n2)cc1F [Compound J342]")
"50 to 100%"
>>> result("Cc1ccc(C(C)C)c(N2C(=O)CS/C2=N\\C(=O)Nc2ccc(-c3ncn(-c4ccc(C(F)(F)F)cn4)n3)cc2Cl)c1 [Compound J295]")
"50 to 100%"
>>> result("CCCNc1ccc(C(C)C)c(N2C(=O)CS/C2=N\\C(=O)Nc2ccc(-c3ncn(-c4ccc(OC(F)(F)F)cc4)n3)cc2CC)c1 [Compound J159]")
"50 to 100%"
>>> result("Cc1ccc(OCC(F)(F)F)c(N2C(=O)CS/C2=N\\C(=O)Nc2ccc(-c3ncn(-c4ccc(OC(F)(F)F)cc4)n3)cc2O)c1 [Compound J176]")
"0 to 50%"
>>> result("Cc1ccc(OCCC(F)(F)F)c(N2C(=O)CS/C2=N\\C(=O)Nc2ccc(-c3ncn(-c4ccc(OC(F)(F)F)cn4)n3)cc2C#N)c1 [Compound J264]")
"50 to 100%"
>>> result("Cc1ccc(COCC(F)(F)F)c(N2C(=O)CS/C2=N\\C(=O)Nc2ccc(-c3ncn(-c4ccc(SC(F)(F)F)cc4)n3)cc2C)c1 [Compound J204]")
"50 to 100%"

* * *

# Tested on: Beet Armyworm (Spodoptera exigua) ("BAW"), second instar larvae
# procedureDetails: Bioassay on beet armyworm (BAW), 128-well diet tray assay
# Format: in vivo
# details: Table ABC, species BAW; C = not tested, D = no activity noticed
parameter: BAW rating

>>> result("COC(C)c1ccc(C)cc1N1C(=O)CS/C1=N\\C(=O)Nc1ccc(-c2ncn(-c3ccc(S(F)(F)(F)(F)F)cc3)n2)cc1F (stereo not drawn)")
"A (50-100)"
>>> result("CCOCc1ccc(C)cc1N1C(=O)CS/C1=N\\C(=O)Nc1ccc(-c2ncn(-c3ccc(S(F)(F)(F)(F)F)cc3)n2)cc1F")
"A (50-100)"
>>> result("CCCc1ccc(C)cc1N1C(=O)CS/C1=N\\C(=O)Nc1ccc(-c2ncn(-c3ccc(S(F)(F)(F)(F)F)cc3)n2)cc1F")
"A (50-100)"
>>> result("CCOCc1ccc(C)cc1N1C(=O)CS/C1=N\\C(=O)Nc1ccc(-c2ncn(-c3cccc(C(F)(F)F)c3)n2)cc1F")
"A (50-100)"
>>> result("Cc1ccc(COCC(F)(F)Cl)c(N2C(=O)CS/C2=N\\C(=O)Nc2ccc(-c3ncn(-c4ccc(OC(F)(F)F)cc4)n3)cc2C)c1")
"A (50-100)"
>>> result("Cc1ccc(-n2cnc(-c3ccc(NC(=O)/N=C4\\SCC(=O)N4c4cc(C)ccc4COCC(F)(F)F)c(F)c3)n2)cc1")
"A (50-100)"

* * *

# System: Yellow Fever Mosquito "YFM" (Aedes aegypti), about 1 day-old larvae
# procedureDetails: Bioassay on yellow fever mosquito (YFM), 96-well plate larval assay
# Type: in vivo
# details: Table ABC, species YFM; mortality scored after 3 days; C = not tested, D = no activity noticed
parameter: YFM rating

>>> result("Cc1cc(-c2ncn(-c3ccc(OC(F)(F)F)cc3)n2)ccc1NC(=O)/N=C1\\SCC(=O)N1c1ccccc1COCC(F)(F)F")
"A (80-100)"
>>> result("Cc1ccc(COCc2ccccc2)c(N2C(=O)CS/C2=N\\C(=O)Nc2ccc(-c3ncn(-c4ccc(C(F)(F)F)cc4)n3)cc2F)c1")
"A (80-100)"
>>> result("Cc1ccc(Cc2cccc(F)c2)c(N2C(=O)CS/C2=N\\C(=O)Nc2ccc(-c3ncn(-c4ccc(C(F)(F)F)cc4)n3)cc2F)c1")
"A (80-100)"
>>> result("O=C(/N=C1\\SCC(=O)N1c1ccccc1-c1ccccc1)Nc1ccc(-c2ncn(-c3ccc(OC(F)(F)F)cc3)n2)cc1F")
"A (80-100)"
>>> result("Cc1ccc(Cc2ccccc2F)c(N2C(=O)CS/C2=N\\C(=O)Nc2ccc(-c3ncn(-c4ccc(C(F)(F)F)cc4)n3)cc2F)c1")
"A (80-100)"
>>> result("Cc1ccc(COCc2cc(C(F)(F)F)cc(C(F)(F)F)c2)c(N2C(=O)CS/C2=N\\C(=O)Nc2ccc(-c3ncn(-c4ccc(C(F)(F)F)cc4)n3)cc2F)c1")
"A (80-100)"

FYI, the data here is from patent US20230077362A1.
